// provenance: patent US12606541B2

Target: His6-TEV-PPARγ-(234-505) (Homo sapiens, UniProt P37231)
Construct: The His6-TEV-PPARγ-(234-505) protein for assay was expressed and purified; TEV cleavage site (N); made in house
Sequence (P37231 234-505): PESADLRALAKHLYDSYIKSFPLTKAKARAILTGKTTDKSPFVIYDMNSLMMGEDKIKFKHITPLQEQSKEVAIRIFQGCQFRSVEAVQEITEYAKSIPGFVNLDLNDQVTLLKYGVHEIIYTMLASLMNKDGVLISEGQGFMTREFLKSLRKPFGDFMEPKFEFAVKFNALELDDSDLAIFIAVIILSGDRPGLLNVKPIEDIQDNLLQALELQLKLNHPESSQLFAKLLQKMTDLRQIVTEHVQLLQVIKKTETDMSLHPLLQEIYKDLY
Assay: TR-FRET Assay to Measure Co-R Peptide Recruitment to PPARγ
Type: biochemical
Settings: Co-R peptide (SMRT-ID2) recruitment; top final concentration 20 μM; read-out: TR-FRET i-Ag; AC50

compound	unit annotation	AC50
COc1cc(-c2cc(C(=O)N3CCC(O)(C(=O)NCc4cccc(Cl)c4)CC3)n[nH]2)c(Cl)cn1 [Example 171]	nM	210
COc1cc(-c2cc(C(=O)N3CCC(C(=O)NCc4cccc(F)c4)CC3)n[nH]2)c(Cl)cn1 [Example 157]	nM	130
COc1cc(-c2cc(C(=O)N3CC[C@H](C(=O)N[C@H]4CN(c5ccc(C)nc5)C[C@@H]4F)CC34CC4)n[nH]2)c(F)cn1 [Example 427]	nM	10.5
COc1cc(-c2cc(C(=O)N3CCC(C(=O)NCc4ccc5oc(=O)n(C)c5c4)CC3)n[nH]2)c(Cl)cn1 [Example 228]	nM	490
COc1cc(-c2cc(C(=O)N3CCC(C(=O)Nc4cccc(C(F)F)c4)CC3)n[nH]2)c(Cl)cn1 [Example 147]	nM	268
COc1cc(-c2cc(C(=O)N3[C@@H]4CC[C@H]3C[C@H](C(=O)NCc3ncc(F)cc3Cl)C4)n[nH]2)c(F)cn1 [Example 384]	nM	15.2
COc1cc(-c2cc(C(=O)N3CC[C@H](C(=O)Nc4cnn5cc(C(C)O)ccc45)CC34CC4)n[nH]2)c(F)cn1 (single isomer, unassigned) [Example 495-A]	nM	23.2
COc1cc(-c2cc(C(=O)N3CC[C@H](C(=O)NCC45CCC(O)(C4)C5)CC34CC4)n[nH]2)c(F)cn1 [Example 334]	nM	72.6
COc1cc(-c2cc(C(=O)N3CCC(C(=O)NCc4ccc(C(F)(F)F)cn4)CC3)n[nH]2)c(Cl)cn1 [Example 139]	nM	336
COc1cc(-c2cc(C(=O)N3CC[C@H](C(=O)NC4CCC5(CCCN5)CC4)CC34CC4)n[nH]2)c(F)cn1 (some centres unmarked) [Example 348]	nM	305
N#Cc1cc(-c2cc(C(=O)N3CCC(C(=O)NC4CCC(O)(C(F)(F)F)CC4)CC34CC4)n[nH]2)ncn1 (single isomer, unassigned) [Example 528-B]	nM	14
COc1cc(-c2cc(C(=O)N3CCC(C(=O)N[C@@H]4CCN(c5ccccc5F)C4)CC34CC4)n[nH]2)c(F)cn1 (some centres unmarked) [Example 296]	nM	19.8
COc1cc(-c2cc(C(=O)N3[C@@H]4CC[C@H]3C[C@H](C(=O)NC3CCC5(CC3)OCC(F)C5F)C4)n[nH]2)c(F)cn1 (some centres unmarked) [Example 319]	nM	124
COc1cc(-c2cc(C(=O)N3CC[C@H](C(=O)NCc4ncc(OC5COC5)cc4Cl)CC34CC4)n[nH]2)c(F)cn1 [Example 446]	nM	1.3
COc1cc(-c2cc(C(=O)N3CC[C@H](C(=O)NC45COC(CO)(C4)C5)CC34CC4)n[nH]2)c(F)cn1 [Example 520]	nM	784
COc1cc(-c2cc(C(=O)N3CCC(C(=O)NCc4ccc5c(c4)CC(=O)N5)CC3)n[nH]2)c(Cl)cn1 [Example 167]	nM	112
COc1cc(-c2cc(C(=O)N3CCC(C(=O)NC4CC(N5CCC(F)(F)C5)C4(C)C)CC34CC4)n[nH]2)c(F)cn1 (single isomer, unassigned) [Example 355-B]	nM	9.4
COc1cc(-c2cc(C(=O)N3CC[C@H](C(=O)NC4CCN(c5ccnc6[nH]ncc56)C4)CC34CC4)n[nH]2)c(F)cn1 (single isomer, unassigned) [Example 450-A]	nM	3.3
COc1cc(-c2cc(C(=O)N3CC[C@H](C(=O)Nc4cnn5cc(C(C)=O)ccc45)CC34CC4)n[nH]2)c(F)cn1 [Example 494]	nM	6.7
COc1cc(-c2cc(C(=O)N3CCC(C(=O)NCc4ncc(C(F)(F)F)cn4)CC3)n[nH]2)c(Cl)cn1 [Example 211]	nM	462
COc1cc(-c2cc(C(=O)N3CCC(C(=O)NC4c5ccccc5OCC4OC)CC3)n[nH]2)c(Cl)cn1 (mixture of isomers) [Example 252]	nM	182
COc1cc(-c2cc(C(=O)N3CCC(C(=O)NC4COC(C)OC4)CC3)n[nH]2)c(Cl)cn1 (mixture of isomers) [Example 121]	nM	807
COc1cc(-c2cc(C(=O)N3CC[C@H](C(=O)NCc4nccnc4C(F)(F)F)CC34CC4)n[nH]2)c(F)cn1 [Example 432]	nM	4.1
Cc1cc(-c2cc(C(=O)N3CCC(C(=O)NCc4ccc5[nH]ccc5c4)CC3)n[nH]2)c(F)cn1 [Example 271]	nM	6.1
COc1cc(-c2cc(C(=O)N3CCC(C(=O)Nc4cnn(CC(F)(F)F)c4)CC3)n[nH]2)c(Cl)cn1 [Example 126]	nM	707
COc1cc(-c2cc(C(=O)N3CC[C@@H](C(=O)NCc4cccc(Cl)c4)CC34CC4)n[nH]2)c(Cl)cn1 (single isomer, unassigned) [Example 245-B]	nM	109

====

Target: His6-TEV-PPARγ-(234-505) (Homo sapiens, UniProt P37231)
Construct: The His6-TEV-PPARγ-(234-505) protein for assay was expressed and purified; TEV cleavage site (N); made in house
Assay: TR-FRET Assay to Measure Co-R Peptide Recruitment to PPARγ
Assay type: biochemical
Settings: Co-R peptide (SMRT-ID2) recruitment; top final concentration 20 μM; read-out: TR-FRET i-Ag; AC50
// returns condition not met unless AC50 is strictly below 0.01 µM, in which case condition met

molecule	label class
COc1cc(-c2cc(C(=O)N3CCC(C(=O)NCc4cccc5[nH]ccc45)CC3)n[nH]2)c(Cl)cn1	condition not met
COc1cc(-c2cc(C(=O)N3CCC(C(=O)NCc4cn(C)nc4C)CC3)n[nH]2)c(Cl)cn1	condition not met
COc1cc(-c2cc(C(=O)N3C4COCC3CC(C(=O)N[C@H]3CC[C@@](O)(C(F)(F)F)CC3)C4)n[nH]2)c(F)cn1 (stereo partly drawn)	condition not met
Cc1cc(-c2cc(C(=O)N3CCC(C(=O)NCc4cccc(Cl)c4)CC3)n[nH]2)c(F)cn1	condition not met
COc1cc(-c2cc(C(=O)N3CCC(C(=O)NCC4CCc5[nH]ncc5C4)CC34CC4)n[nH]2)c(F)cn1 (single isomer, unassigned) [Example 341-A]	condition met
COc1cc(-c2cc(C(=O)N3CCC(C(=O)NC4CCC(OCC(C)OC)(C(F)(F)F)CC4)CC34CC4)n[nH]2)c(F)cn1 (single isomer, unassigned) [Example 340-B]	condition not met
COc1cc(-c2cc(C(=O)N3CCC(C(=O)NC4(C(F)(F)F)CCCC4)CC3)n[nH]2)c(Cl)cn1	condition not met
COc1cc(-c2cc(C(=O)N3CC[C@H](C(=O)NCc4nc(C)oc4C(F)(F)F)CC34CC4)n[nH]2)c(F)cn1	condition met
COc1cc(-c2cc(C(=O)N3CCC(C(=O)NCc4ccc5cc[nH]c5n4)CC3)n[nH]2)c(Cl)cn1	condition not met
CC(O)c1cc(-c2cc(C(=O)N3CCC(C(=O)NCc4ncc(F)cc4Cl)CC34CC4)n[nH]2)c(F)cn1 (mixture of isomers)	condition not met
COc1cc(-c2cc(C(=O)N3CCC(C(=O)N[C@H]4CC[C@@](O)(C(F)(F)F)CC4)C[C@@H]3C(F)(F)F)n[nH]2)c(F)cn1 (mixture of isomers)	condition not met
COc1cc(-c2cc(C(=O)N3CC[C@H](C(=O)Nc4cnn5c4CC(O)CC5)CC34CC4)n[nH]2)c(F)cn1 (single isomer, unassigned) [Example 514-A]	condition not met
COc1cc(-c2cc(C(=O)N3CC[C@H](C(=O)Nc4cnn5cc(C(C)O)ccc45)CC34CC4)n[nH]2)c(F)cn1 (single isomer, unassigned) [Example 495-B]	condition not met
COc1cc(-c2cc(C(=O)N3CCC(C(=O)NC4CCN(CCF)C(C)(C)C4)CC34CC4)n[nH]2)c(F)cn1 (mixture of isomers)	condition not met
COc1cc(-c2cc(C(=O)N3CC[C@H](C(=O)NC4CCN(CC(F)(F)CO)C4)CC34CC4)n[nH]2)c(F)cn1 (single isomer, unassigned) [Example 459-A]	condition met
COc1cc(-c2cc(C(=O)N3CCC(C(=O)NCC4CCn5c(C)nnc5C4)CC34CC4)n[nH]2)c(F)cn1 (single isomer, unassigned) [Example 346-A]	condition not met
COc1cc(-c2cc(C(=O)N3CC[C@H](C(=O)NC4CCN(c5cnc(C)nc5)C4)CC34CC4)n[nH]2)c(F)cn1 (single isomer, unassigned) [Example 453-A]	condition met
COc1cc(-c2cc(C(=O)N3CC[C@H](C(=O)NC4CN(C5CCOC5)C4)CC34CC4)n[nH]2)c(F)cn1 (single isomer, unassigned) [Example 433-A]	condition not met
COc1cc(-c2cc(C(=O)N3CC[C@H](C(=O)NC4CCN(CC(F)(F)CO)C4)CC34CC4)n[nH]2)c(F)cn1 (single isomer, unassigned) [Example 459-B]	condition not met
COc1cc(-c2[nH]nc(C(=O)N3CCC(C(=O)NC4CCC(C)CC4)CC3)c2F)ccn1 (mixture of isomers)	condition not met
COc1cc(-c2cc(C(=O)N3CC[C@H](C(=O)NC4CCC(O)(C(F)(F)F)C(O)C4)CC34CC4)n[nH]2)c(F)cn1 (single isomer, unassigned) [Example 474-C]	condition met
COc1cc(-c2cc(C(=O)N3[C@@H]4CC[C@H]3C[C@H](C(=O)NC3CC[Si](C)(C)CC3)C4)n[nH]2)c(F)cn1	condition not met
COc1cc(-c2cc(C(=O)N3CC[C@H](C(=O)NC4CCC(N)(C(F)(F)F)CC4)CC34CC4)n[nH]2)c(F)cn1 (single isomer, unassigned)	condition not met
COc1cc(-c2cc(C(=O)N3CCC(C(=O)NC4CCC(O)(C(F)(F)F)CC4)CC34CC4)n[nH]2)c(F)cn1 (mixture of isomers)	condition met
